Test system: Canavalia ensiformis
Test: Compound was tested for Percent inhibition of alpha-Mannosidases from Jack beans at a dose of 1 mM
OBSERVATION TYPE: inhibition (%)
Write the value in % as a bare number.

Sample answers from the record:
QUERY SMILES: CCOC(=O)c1cc([C@H]2NC[C@@H](O)[C@H]2O)oc1C
inhibition, %: 49
--
QUERY SMILES: CCOC(=O)c1cc([C@@H]2NC[C@@H](O)[C@H]2O)oc1C
inhibition, %: 38
--
QUERY SMILES: CCN(CC)C(=O)c1cc([C@H]2NC[C@@H](O)[C@H]2O)oc1C
inhibition, %: 37

Please look at the following compound next.
Form field inhibition, entry CCN(CC)C(=O)c1cc([C@@H]2NC[C@@H](O)[C@H]2O)oc1C : 27

---

Target: Beta-galactosidase (Bos taurus)
Test: Compound was tested for Percent inhibition of Beta-galactosidase from Bovine liver at a dose of 1 mM
Threshold check on inhibition: at or above 60% gives Y, strictly below gives N.

Known results for compounds:
QUERY SMILES: Cc1oc([C@H]2NC[C@@H](O)[C@H]2O)cc1C(=O)NC(C)C
LABEL CLASS: N
--
QUERY SMILES: CCN(CC)C(=O)c1cc([C@@H]2NC[C@@H](O)[C@H]2O)oc1C
LABEL CLASS: N
--
QUERY SMILES: CCOC(=O)c1cc([C@H]2NC[C@@H](O)[C@H]2O)oc1C
LABEL CLASS: Y

Given the entry CCOC(=O)c1cc([C@@H]2NC[C@@H](O)[C@H]2O)oc1C , answer whether its inhibition meets or surpasses 60%.
N

Could you please find out whether CCN(CC)C(=O)c1cc([C@H]2NC[C@@H](O)[C@H]2O)oc1C has inhibition that meets 60% or exceeds it?
Y

Reported inhibition at or above 60%? Cc1oc([C@@H]2NC[C@@H](O)[C@H]2O)cc1C(=O)NC(C)C
N

---

Target: Beta-galactosidase (Aspergillus niger, UniProt P29853)
Sequence (P29853 whole entry): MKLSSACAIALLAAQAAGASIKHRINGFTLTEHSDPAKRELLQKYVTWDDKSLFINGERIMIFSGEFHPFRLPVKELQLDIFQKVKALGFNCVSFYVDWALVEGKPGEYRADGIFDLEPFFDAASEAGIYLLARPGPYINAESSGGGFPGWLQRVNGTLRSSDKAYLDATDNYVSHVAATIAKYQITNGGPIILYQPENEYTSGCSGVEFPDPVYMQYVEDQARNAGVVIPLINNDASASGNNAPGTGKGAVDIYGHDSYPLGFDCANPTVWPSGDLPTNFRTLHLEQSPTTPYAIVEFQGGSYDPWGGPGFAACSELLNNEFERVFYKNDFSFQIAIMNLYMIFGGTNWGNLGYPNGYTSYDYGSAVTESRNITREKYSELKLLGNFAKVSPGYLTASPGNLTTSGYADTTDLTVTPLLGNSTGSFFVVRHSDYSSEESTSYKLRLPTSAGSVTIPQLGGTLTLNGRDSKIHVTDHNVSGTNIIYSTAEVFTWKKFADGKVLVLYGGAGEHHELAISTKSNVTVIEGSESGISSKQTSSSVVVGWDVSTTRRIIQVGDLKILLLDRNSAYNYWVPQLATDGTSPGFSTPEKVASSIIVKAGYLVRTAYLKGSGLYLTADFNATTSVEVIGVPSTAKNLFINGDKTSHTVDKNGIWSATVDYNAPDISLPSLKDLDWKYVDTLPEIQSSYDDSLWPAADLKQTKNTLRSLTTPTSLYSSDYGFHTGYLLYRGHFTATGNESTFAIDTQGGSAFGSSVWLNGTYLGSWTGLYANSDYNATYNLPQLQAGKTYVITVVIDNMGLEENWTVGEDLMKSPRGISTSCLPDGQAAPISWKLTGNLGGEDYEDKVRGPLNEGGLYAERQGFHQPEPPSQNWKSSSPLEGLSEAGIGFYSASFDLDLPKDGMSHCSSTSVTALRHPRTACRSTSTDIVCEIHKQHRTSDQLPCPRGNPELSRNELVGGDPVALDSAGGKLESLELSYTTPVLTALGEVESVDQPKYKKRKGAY
Assay: Inhibitor concentration against Beta-galactosidase from Aspergillus niger was tested at a dose of 1 mM
OBSERVATION TYPE: pIC50
Worth noting: pIC50 values are minus log10 of concentrations stated in mol/L.

Recorded pIC50 (molecule Cc1oc([C@H]2NC[C@@H](O)[C@H]2O)cc1C(=O)NC(C)C ): 3.60

These measurements were taken from ChEMBL document CHEMBL1134886.
